# assay-notes: Cell survival by FITC-AnnexinV/propidium iodide apoptosis detection, flow cytometry
# Assay type: cell-based, mouse
# setup-conditions: mouse, NPD1 1 nM alone, no cisplatin; read-out: Set I Cell Viability
# Procedure: The cultures were kept at 33° C. in an incubator with 10% CO2. Cell survival after NPD1 treatment was also analyzed in UB/OC-1 cells in the presence or absence of damage. Specifically, cell death via apoptosis was determined by using FITC-AnnexinV Apoptosis detection kit (BD Pharmingen, San Diego, Calif., USA) and quantified by flow cytometry. […] The results were quantified using the CellQuest software (BD Biosciences, San Jose, Calif.). […]
metric: viability at 1 nM (%)
Field format: number, assumed %, no unit text.

# viability at 1 nM (compound: CC/C=C\C[C@H](O)\C=C/C=C/C=C/[C@H](O)C/C=C\C/C=C\CCC(=O)[O-].[Na+] ) is 96

The values you see were collected from patent USRE48077E1.
